# Tested on: BXPC-3
# assay-method-text: Antiproliferative activity against human BXPC-3 cells assessed as inhibition of cell growth measured after 72 hrs by MTT assay
# Type: functional, cell-based
# measurement-parameters: BXPC-3, 72 h
endpoint-label: pIC50
Please note pIC50 is a logarithmic value: minus log10 of concentration in mol/L. Answer with that number alone.

So what's the measured pIC50 for this one? COc1ccc(-c2nc(N3CCOCC3)c3sc(CN(C)c4ncc(C(=O)NO)cn4)cc3n2)cn1 [FIMEPINOSTAT]
8.70

====

# tested-target: UniProt:O15379
# Sequence (O15379 whole entry): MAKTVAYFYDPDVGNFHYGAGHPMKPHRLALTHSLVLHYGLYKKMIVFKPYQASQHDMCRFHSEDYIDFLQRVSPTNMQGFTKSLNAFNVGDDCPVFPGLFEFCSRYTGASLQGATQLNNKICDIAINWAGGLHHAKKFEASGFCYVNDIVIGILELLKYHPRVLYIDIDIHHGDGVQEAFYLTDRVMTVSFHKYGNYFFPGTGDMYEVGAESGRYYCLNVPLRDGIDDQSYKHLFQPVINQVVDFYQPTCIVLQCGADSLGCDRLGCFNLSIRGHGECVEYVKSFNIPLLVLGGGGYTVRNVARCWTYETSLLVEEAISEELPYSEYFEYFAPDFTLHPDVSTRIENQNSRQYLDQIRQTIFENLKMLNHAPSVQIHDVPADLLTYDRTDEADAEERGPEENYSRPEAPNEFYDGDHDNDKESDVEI
# assay-method-text: Inhibition of HDAC3 (unknown origin)
pIC50 values for the molecules below.
Please note pIC50 is a logarithmic value: minus log10 of concentration in mol/L. Answer with that number alone.

sample_smiles=CNc1ccc(-c2nc(N3CCOCC3)c3sc(CN(C)c4ncc(C(=O)NO)cn4)cc3n2)cn1 tested_target=UniProt:O15379 endpoint_label=pIC50 endpoint_value=9.05

Next molecule, please.
So what's the measured pIC50 for this one? "CNCCOc1ccc(-c2cc(=O)c3cc(OCCCCCC(=O)NO)cc(O)c3o2)cc1"
7.52

All figures here come from ChEMBL document CHEMBL5614367.
